- EXPERIMENT_SUMMARY: in vivo
- EXPERIMENTAL_CONTEXT: male, NodCB17 SCID, mouse, liver, iv, total radioactivity
MEASUREMENT_TYPE: tissue uptake at 1 h (%ID/g)
# number only, unit %ID/g dropped from output

Reported tissue uptake at 1 h for CC(C)C[C@H](NC(=O)C[C@H](O)[C@H](CC(C)C)NC(=O)[C@H](Cc1c[nH]cn1)NC(=O)CNC(=O)[C@@H](NC(=O)[C@H](C)NC(=O)[C@H](Cc1c[nH]c2ccccc12)NC(=O)[C@H](CCC(N)=O)NC(=O)[C@@H](Cc1ccccc1)NC(=O)CCOCCOCCOCCOCCNC(=O)OC1CCCC2=CNN=C(c3ccc(CNC(=O)CN4CCN(CC(=O)O)CCN(CC(=O)O)CCN(CC(=O)O)CC4)cc3)C2CC1)C(C)C)C(N)=O (stereo partly shown) [[111In]In-DOTA-Tz-TCO-PEG4-AR, metal not drawn] was 0.74

###

- EXPERIMENT_SUMMARY: Biodistribution of [111In]In-radiocomplexes in healthy mice
- Assay type: in vivo
- EXPERIMENTAL_CONTEXT: 1 h p.i.
MEASUREMENT_TYPE: Biodistribution: Intestine (% I.D./g)
# number only, unit % I.D./g dropped from output

Reported Biodistribution: Intestine for O=C([O-])CN1CCN(CC(=O)[O-])CCN(CC(=O)NCCOCCOCCOCCOCCOCCOCCOCCOCCOCCOCCOCCNC(=O)CCCC(=O)NCc2ccc(-c3nncnn3)cc2)CCN(CC(=O)[O-])CC1.[111In+3] [[111In]In-DOTA-PEG-Tz] was 0.05

Reported Biodistribution: Intestine for O=C([O-])CN1CCN(CC(=O)[O-])CCN(CC(=O)NCc2ccc(-c3nncnn3)cc2)CCN(CC(=O)[O-])CC1.[111In+3] [[111In]In-DOTA-Tz] was 0.05

Reported Biodistribution: Intestine for O=C([O-])CN1CCN(CC(=O)[O-])CCN(C(CCC(=O)NCCOCCOCCOCCOCCOCCOCCOCCOCCOCCOCCOCCNC(=O)CCCC(=O)NCc2ccc(-c3nncnn3)cc2)C(=O)[O-])CCN(CC(=O)[O-])CC1.[111In+3] (stereo not shown) [[111In]In-DOTAGA-PEG-Tz] was 0.4

Reported Biodistribution: Intestine for O=C([O-])CN1CCN(CC(=O)[O-])CCN(C(CCC(=O)NCc2ccc(-c3nncnn3)cc2)C(=O)[O-])CCN(CC(=O)[O-])CC1.[111In+3] (stereo not shown) [[111In]In-DOTAGA-Tz] was 0.26

###

- EXPERIMENT_SUMMARY: in vivo
- EXPERIMENTAL_CONTEXT: male, NodCB17 SCID, mouse, stomach, iv, total radioactivity
MEASUREMENT_TYPE: tissue uptake at 1 h (%ID/g)
# number only, unit %ID/g dropped from output

Reported tissue uptake at 1 h for CC(C)C[C@H](NC(=O)C[C@H](O)[C@H](CC(C)C)NC(=O)[C@H](Cc1c[nH]cn1)NC(=O)CNC(=O)[C@@H](NC(=O)[C@H](C)NC(=O)[C@H](Cc1c[nH]c2ccccc12)NC(=O)[C@H](CCC(N)=O)NC(=O)[C@@H](Cc1ccccc1)NC(=O)CCOCCOCCOCCOCCNC(=O)OC1CCCC2=CNN=C(c3ccc(CNC(=O)CN4CCN(CC(=O)O)CCN(CC(=O)O)CCN(CC(=O)O)CC4)cc3)C2CC1)C(C)C)C(N)=O (stereo partly shown) [[111In]In-DOTA-Tz-TCO-PEG4-AR, metal not drawn] was 0.9

###

- EXPERIMENT_SUMMARY: in vivo
- EXPERIMENTAL_CONTEXT: male, NodCB17 SCID, mouse, lung, iv, 0.061 nmol, total radioactivity
MEASUREMENT_TYPE: tissue uptake at 1 h (%ID/g)
# number only, unit %ID/g dropped from output

Reported tissue uptake at 1 h for CC(C)C[C@H](NC(=O)C[C@H](O)[C@H](CC(C)C)NC(=O)[C@H](Cc1c[nH]cn1)NC(=O)CNC(=O)[C@@H](NC(=O)[C@H](C)NC(=O)[C@H](Cc1c[nH]c2ccccc12)NC(=O)[C@H](CCC(N)=O)NC(=O)[C@@H](Cc1ccccc1)NC(=O)CCOCCOCCOCCOCCNC(=O)OC1CCCC2=CNN=C(c3ccc(CNC(=O)CN4CCN(CC(=O)O)CCN(CC(=O)O)CCN(CC(=O)O)CC4)cc3)C2CC1)C(C)C)C(N)=O (stereo partly shown) [[90Y]Y-DOTA-Tz-TCO-PEG4-AR, metal not drawn] was 1.57

###

Hi there, I'd appreciate the recorded Excretion for every entry that follows.
- EXPERIMENT_SUMMARY: Biodistribution of [111In]In-radiocomplexes in healthy mice
- Assay type: in vivo
- EXPERIMENTAL_CONTEXT: 1 h p.i.
# number only, unit % I.D. dropped from output

Reported Excretion for O=C([O-])CN1CCN(CC(=O)[O-])CCN(C(CCC(=O)NCc2ccc(-c3nncnn3)cc2)C(=O)[O-])CCN(CC(=O)[O-])CC1.[111In+3] (stereo not shown) [[111In]In-DOTAGA-Tz] was 81.5

Reported Excretion for O=C([O-])CN1CCN(CC(=O)[O-])CCN(CC(=O)NCCOCCOCCOCCOCCOCCOCCOCCOCCOCCOCCOCCNC(=O)CCCC(=O)NCc2ccc(-c3nncnn3)cc2)CCN(CC(=O)[O-])CC1.[111In+3] [[111In]In-DOTA-PEG-Tz] was 93.6

Reported Excretion for O=C([O-])CN1CCN(CC(=O)[O-])CCN(C(CCC(=O)NCCOCCOCCOCCOCCOCCOCCOCCOCCOCCOCCOCCNC(=O)CCCC(=O)NCc2ccc(-c3nncnn3)cc2)C(=O)[O-])CCN(CC(=O)[O-])CC1.[111In+3] (stereo not shown) [[111In]In-DOTAGA-PEG-Tz] was 87.1

Reported Excretion for O=C([O-])CN1CCN(CC(=O)[O-])CCN(CC(=O)NCc2ccc(-c3nncnn3)cc2)CCN(CC(=O)[O-])CC1.[111In+3] [[111In]In-DOTA-Tz] was 91.8

###

- EXPERIMENT_SUMMARY: in vivo
- EXPERIMENTAL_CONTEXT: male, NodCB17 SCID, mouse, heart, iv, 0.061 nmol, total radioactivity
MEASUREMENT_TYPE: tissue uptake at 1 h (%ID/g)
# number only, unit %ID/g dropped from output

Reported tissue uptake at 1 h for CC(C)C[C@H](NC(=O)C[C@H](O)[C@H](CC(C)C)NC(=O)[C@H](Cc1c[nH]cn1)NC(=O)CNC(=O)[C@@H](NC(=O)[C@H](C)NC(=O)[C@H](Cc1c[nH]c2ccccc12)NC(=O)[C@H](CCC(N)=O)NC(=O)[C@@H](Cc1ccccc1)NC(=O)CCOCCOCCOCCOCCNC(=O)OC1CCCC2=CNN=C(c3ccc(CNC(=O)CN4CCN(CC(=O)O)CCN(CC(=O)O)CCN(CC(=O)O)CC4)cc3)C2CC1)C(C)C)C(N)=O (stereo partly shown) [[90Y]Y-DOTA-Tz-TCO-PEG4-AR, metal not drawn] was 0.61

###

- EXPERIMENT_SUMMARY: in vivo
- EXPERIMENTAL_CONTEXT: male, NodCB17 SCID, mouse, lung, iv, total radioactivity
MEASUREMENT_TYPE: tissue uptake at 1 h (%ID/g)
# number only, unit %ID/g dropped from output

Reported tissue uptake at 1 h for CC(C)C[C@H](NC(=O)C[C@H](O)[C@H](CC(C)C)NC(=O)[C@H](Cc1c[nH]cn1)NC(=O)CNC(=O)[C@@H](NC(=O)[C@H](C)NC(=O)[C@H](Cc1c[nH]c2ccccc12)NC(=O)[C@H](CCC(N)=O)NC(=O)[C@@H](Cc1ccccc1)NC(=O)CCOCCOCCOCCOCCNC(=O)OC1CCCC2=CNN=C(c3ccc(CNC(=O)CN4CCN(CC(=O)O)CCN(CC(=O)O)CCN(CC(=O)O)CC4)cc3)C2CC1)C(C)C)C(N)=O (stereo partly shown) [[111In]In-DOTA-Tz-TCO-PEG4-AR, metal not drawn] was 0.7

###

- EXPERIMENT_SUMMARY: in vivo
- EXPERIMENTAL_CONTEXT: male, NodCB17 SCID, mouse, muscle, iv, total radioactivity
MEASUREMENT_TYPE: tissue uptake at 1 h (%ID/g)
# number only, unit %ID/g dropped from output

Reported tissue uptake at 1 h for CC(C)C[C@H](NC(=O)C[C@H](O)[C@H](CC(C)C)NC(=O)[C@H](Cc1c[nH]cn1)NC(=O)CNC(=O)[C@@H](NC(=O)[C@H](C)NC(=O)[C@H](Cc1c[nH]c2ccccc12)NC(=O)[C@H](CCC(N)=O)NC(=O)[C@@H](Cc1ccccc1)NC(=O)CCOCCOCCOCCOCCNC(=O)OC1CCCC2=CNN=C(c3ccc(CNC(=O)CN4CCN(CC(=O)O)CCN(CC(=O)O)CCN(CC(=O)O)CC4)cc3)C2CC1)C(C)C)C(N)=O (stereo partly shown) [[111In]In-DOTA-Tz-TCO-PEG4-AR, metal not drawn] was 0.3
